Values were extracted from patent US20180355014A1.

- test-target: T1, HLA-B*08:01 (human)
- T1 construct: Recombinant MHC class I molecule without the test peptide; the peptide is the other partner
- method-description: REVEAL MHC-peptide binding assay, recombinant HLA-B*08:01
In Vitro Score: recorded values

{"binder": "IFWVLRGRK (synthetic 9-mer; the entry already carries the mutation) [IFWVLRGRK (SEQ ID NO: 34)]", "In Vitro Score": "0 % of positive control peptide"}
{"binder": "FWVQRGSKK (synthetic 9-mer; the entry already carries the mutations) [FWVQRGSKK (SEQ ID NO: 79)]", "In Vitro Score": "0 % of positive control peptide"}
{"binder": "FWVQRGRKK (synthetic 9-mer; the entry already carries the mutation) [FWVQRGRKK (SEQ ID NO: 55)]", "In Vitro Score": "1.9 % of positive control peptide"}
{"binder": "FIIFWVQRG (synthetic 9-mer; the entry already carries the mutation) [FIIFWVQRG (SEQ ID NO: 52)]", "In Vitro Score": "0.6 % of positive control peptide"}
